# Test system: CL
# test.name: 48 h incubation with the salts: cell fluorescence, living cells, multiplication coefficient (Table 1)
# Assay type: cell-based
# run.conditions: 48 hs, 50 mcg/ml
assay.readout: Cell fluorescence /F/

- molecule: "CC1=C(CCC(=O)O)c2cc3[nH]c(cc4nc(cc5[nH]c(cc1n2)c(C(C)NC(CS)C(=O)O)c5C)C(C(C)NC(CS)C(=O)O)=C4C)c(C)c3CCC(=O)O.N=C(N)NCCC[C@H](N)C(=O)O.N=C(N)NCCC[C@H](N)C(=O)O (stereo not drawn) [PP/Cys/2 /Arg/2]"
  assay.readout: "Cell fluorescence /F/"
  reported.result: "-"
- molecule: "CC1=C(CCC(=O)O)c2cc3[nH]c(cc4nc(cc5[nH]c(cc1n2)c(C(C)NC(CCC(=O)O)C(=O)O)c5C)C(C(C)NC(CCC(=O)O)C(=O)O)=C4C)c(C)c3CCC(=O)O.N=C(N)NCCC[C@H](N)C(=O)O.N=C(N)NCCC[C@H](N)C(=O)O (stereo not drawn) [PP/Glu/2 /Arg/2]"
  assay.readout: "Cell fluorescence /F/"
  reported.result: "-"
- molecule: "CC1=C(CCC(=O)O)c2cc3[nH]c(cc4nc(cc5[nH]c(cc1n2)c(C(C)NC(C)C(=O)O)c5C)C(C(C)NC(C)C(=O)O)=C4C)c(C)c3CCC(=O)O.N=C(N)NCCC[C@H](N)C(=O)O.N=C(N)NCCC[C@H](N)C(=O)O (stereo not drawn) [PP/Ala/2 /Arg/2]"
  assay.readout: "Cell fluorescence /F/"
  reported.result: "-"
- molecule: "CC1=C(CCC(=O)O)c2cc3[nH]c(cc4nc(cc5[nH]c(cc1n2)c(C(C)NC(CC(=O)O)C(=O)O)c5C)C(C(C)NC(CC(=O)O)C(=O)O)=C4C)c(C)c3CCC(=O)O.N=C(N)NCCC[C@H](N)C(=O)O.N=C(N)NCCC[C@H](N)C(=O)O (stereo not drawn) [PP/Asp/2 /Arg/2]"
  assay.readout: "Cell fluorescence /F/"
  reported.result: "+"
- molecule: "CC1=C(CCC(=O)O)c2cc3[nH]c(cc4nc(cc5[nH]c(cc1n2)c(C(C)NC(CO)C(=O)O)c5C)C(C(C)NC(CO)C(=O)O)=C4C)c(C)c3CCC(=O)O.N=C(N)NCCC[C@H](N)C(=O)O.N=C(N)NCCC[C@H](N)C(=O)O (stereo not drawn) [PP/Ser/2 /Arg/2, l-arginine di/N-seryl/-protoporphyrinate]"
  assay.readout: "Cell fluorescence /F/"
  reported.result: "+"
- molecule: "CC1=C(CCC(=O)O)c2cc3[nH]c(cc4nc(cc5[nH]c(cc1n2)c(C(C)NC(Cc1c[nH]c2ccccc12)C(=O)O)c5C)C(C(C)NC(Cc1c[nH]c2ccccc12)C(=O)O)=C4C)c(C)c3CCC(=O)O.N=C(N)NCCC[C@H](N)C(=O)O.N=C(N)NCCC[C@H](N)C(=O)O (stereo not drawn) [PP/Trp/2 /Arg/2]"
  assay.readout: "Cell fluorescence /F/"
  reported.result: "-"
- molecule: "CC1=C(CCC(=O)O)c2cc3[nH]c(cc4nc(cc5[nH]c(cc1n2)c(C(C)NC(Cc1ccccc1)C(=O)O)c5C)C(C(C)NC(Cc1ccccc1)C(=O)O)=C4C)c(C)c3CCC(=O)O.N=C(N)NCCC[C@H](N)C(=O)O.N=C(N)NCCC[C@H](N)C(=O)O (stereo not drawn) [PP/Fen/2 /Arg/2]"
  assay.readout: "Cell fluorescence /F/"
  reported.result: "++"
- molecule: "CC1=C(CCC(=O)O)c2cc3[nH]c(cc4nc(cc5[nH]c(cc1n2)c(C(C)NC(CCCCN)C(=O)O)c5C)C(C(C)NC(CCCCN)C(=O)O)=C4C)c(C)c3CCC(=O)O.N=C(N)NCCC[C@H](N)C(=O)O.N=C(N)NCCC[C@H](N)C(=O)O (stereo not drawn) [PP/Lys/2 /Arg/2, l-arginine di/N-lysyl/-protoporphyrinate]"
  assay.readout: "Cell fluorescence /F/"
  reported.result: "+"

IN: // lookup Cell fluorescence /F/ for CSCCC(NC(C)C1=C(C)c2cc3[nH]c(cc4nc(cc5[nH]c(cc1n2)c(C)c5C(C)NC(CCSC)C(=O)O)C(C)=C4CCC(=O)O)c(CCC(=O)O)c3C)C(=O)O.N=C(N)NCCC[C@H](N)C(=O)O.N=C(N)NCCC[C@H](N)C(=O)O (stereo not drawn) [PP/Met/2 /Arg/2]
OUT: +
